Hi there, I'd appreciate the recorded phosphorylation enrichment for every entry that follows.
Biological target: Fes (UniProt P07332)
Sequence (P07332 whole entry, looked up): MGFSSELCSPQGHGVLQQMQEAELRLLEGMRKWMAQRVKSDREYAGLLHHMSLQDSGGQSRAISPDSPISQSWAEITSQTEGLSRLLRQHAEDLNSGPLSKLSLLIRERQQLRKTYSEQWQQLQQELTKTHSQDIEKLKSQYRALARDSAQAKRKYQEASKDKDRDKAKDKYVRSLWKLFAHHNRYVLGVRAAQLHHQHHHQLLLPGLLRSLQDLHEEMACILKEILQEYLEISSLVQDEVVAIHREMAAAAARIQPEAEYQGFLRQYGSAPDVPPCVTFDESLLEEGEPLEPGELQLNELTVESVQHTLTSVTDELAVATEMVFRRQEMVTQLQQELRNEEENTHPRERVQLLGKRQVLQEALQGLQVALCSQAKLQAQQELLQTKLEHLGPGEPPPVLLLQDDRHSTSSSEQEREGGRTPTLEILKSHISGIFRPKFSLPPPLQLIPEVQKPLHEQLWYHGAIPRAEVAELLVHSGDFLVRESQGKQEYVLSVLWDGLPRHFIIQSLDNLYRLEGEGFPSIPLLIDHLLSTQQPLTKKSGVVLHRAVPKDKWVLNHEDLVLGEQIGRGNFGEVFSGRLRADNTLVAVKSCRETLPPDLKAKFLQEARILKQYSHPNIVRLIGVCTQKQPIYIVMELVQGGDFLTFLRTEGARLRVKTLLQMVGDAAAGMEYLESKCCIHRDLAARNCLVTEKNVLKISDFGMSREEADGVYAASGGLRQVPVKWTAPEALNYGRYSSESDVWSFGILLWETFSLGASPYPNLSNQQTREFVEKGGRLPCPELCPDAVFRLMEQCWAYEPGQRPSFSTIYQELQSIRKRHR
Test: phosphorylation enrichment, bacterial display (enrichment ratio); higher = better substrate or ligand; peptides without Tyr show the background;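 also: 11-residue human phosphosite peptides and single-mutation variants displayed on the E. coli surface, counted by deep sequencing, each peptide's frequency after selection divided by its frequency in the unselected input library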;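 also: frequency after pTyr selection over input frequency; kinase dosed for 20-30% of maximal phosphorylation in three min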
Give bare numbers.

Before answering, review these 4 worked examples.
[
  {
    "primarySequence": "TSPALYRLDLD [TRIL_Y352_A347T]",
    "phosphorylation enrichment": 1.24
  },
  {
    "primarySequence": "LADKPYTFEDF [FXN_Y118_YF]",
    "phosphorylation enrichment": 2.52
  },
  {
    "primarySequence": "KDAGDYKCKAK [LRIT3_Y326]",
    "phosphorylation enrichment": 0.618
  },
  {
    "primarySequence": "SQQTFCRVSNM [ABCD1_Y181_Y181C_YF]",
    "phosphorylation enrichment": 0.679
  }
]

// input: 5 sequences below; output: phosphorylation enrichment for each
1. KMLEKYKERLN [TLK2_Y259]
2. YHLLPYTVRAM [PARS2_Y93]
3. FRKNIYNVKST [SYNE2_Y575_YF]
4. AQPHTYEEPGR [EPHA8_Y616_E612Q]
5. LSIDRYHAIVY [NPSR1_Y147]

stdout:
0.789
0.913
0.439
0.729
1.15

###

System: Fer (mouse)
Assay: phosphorylation enrichment, bacterial display (enrichment ratio); higher = better substrate or ligand; peptides without Tyr show the background
Is phosphorylation enrichment at least 0.6? Then true (1). If not, false (0).

[
  {
    "primarySequence": "LADKPYTFEDY [FXN_Y118]",
    "groupLabel": "true (1)"
  },
  {
    "primarySequence": "KQMEQYMSFHK [HCN1_Y417_V414M]",
    "groupLabel": "false (0)"
  },
  {
    "primarySequence": "EQWRAYLEGTC [HLA-C_Y183_L180W]",
    "groupLabel": "true (1)"
  }
]

stdin: Item GHLYACDWISI [BEST1_Y227_Y227C] with phosphorylation enrichment of 0.6 or above?
stdout: true (1)

stdin: Item QMQNPYSSHSS [MUC13_Y501_R503S] with phosphorylation enrichment of 0.6 or above?
stdout: true (1)

stdin: Item GISDEYHMIRH [GCDH_Y398_V400M] with phosphorylation enrichment of 0.6 or above?
stdout: false (0)

stdin: Item PEVCDYGLGGG [GSTO1_Y239_A236V] with phosphorylation enrichment of 0.6 or above?
stdout: true (1)

stdin: Item RIRRRYCQVLN [IQCF1_Y144] with phosphorylation enrichment of 0.6 or above?
stdout: true (1)

stdin: Item TQRPFYKGGGG [TYROBP_Y112_YF] with phosphorylation enrichment of 0.6 or above?
stdout: false (0)

stdin: Item CEHRGHLFLAI [TEK_Y897_Y897H_YF] with phosphorylation enrichment of 0.6 or above?
stdout: false (0)

stdin: Item LRTAVHHEILI [CREBBP_Y1450_Y1450H] with phosphorylation enrichment of 0.6 or above?
stdout: true (1)

stdin: Item RCKNHYAAFSV [C1QTNF1_Y145_S143N] with phosphorylation enrichment of 0.6 or above?
stdout: false (0)

###

Hi there, I'd appreciate the recorded phosphorylation enrichment for every entry that follows.
Molecular target: EPHB1 (UniProt P54762)
Sequence (P54762 whole entry, looked up): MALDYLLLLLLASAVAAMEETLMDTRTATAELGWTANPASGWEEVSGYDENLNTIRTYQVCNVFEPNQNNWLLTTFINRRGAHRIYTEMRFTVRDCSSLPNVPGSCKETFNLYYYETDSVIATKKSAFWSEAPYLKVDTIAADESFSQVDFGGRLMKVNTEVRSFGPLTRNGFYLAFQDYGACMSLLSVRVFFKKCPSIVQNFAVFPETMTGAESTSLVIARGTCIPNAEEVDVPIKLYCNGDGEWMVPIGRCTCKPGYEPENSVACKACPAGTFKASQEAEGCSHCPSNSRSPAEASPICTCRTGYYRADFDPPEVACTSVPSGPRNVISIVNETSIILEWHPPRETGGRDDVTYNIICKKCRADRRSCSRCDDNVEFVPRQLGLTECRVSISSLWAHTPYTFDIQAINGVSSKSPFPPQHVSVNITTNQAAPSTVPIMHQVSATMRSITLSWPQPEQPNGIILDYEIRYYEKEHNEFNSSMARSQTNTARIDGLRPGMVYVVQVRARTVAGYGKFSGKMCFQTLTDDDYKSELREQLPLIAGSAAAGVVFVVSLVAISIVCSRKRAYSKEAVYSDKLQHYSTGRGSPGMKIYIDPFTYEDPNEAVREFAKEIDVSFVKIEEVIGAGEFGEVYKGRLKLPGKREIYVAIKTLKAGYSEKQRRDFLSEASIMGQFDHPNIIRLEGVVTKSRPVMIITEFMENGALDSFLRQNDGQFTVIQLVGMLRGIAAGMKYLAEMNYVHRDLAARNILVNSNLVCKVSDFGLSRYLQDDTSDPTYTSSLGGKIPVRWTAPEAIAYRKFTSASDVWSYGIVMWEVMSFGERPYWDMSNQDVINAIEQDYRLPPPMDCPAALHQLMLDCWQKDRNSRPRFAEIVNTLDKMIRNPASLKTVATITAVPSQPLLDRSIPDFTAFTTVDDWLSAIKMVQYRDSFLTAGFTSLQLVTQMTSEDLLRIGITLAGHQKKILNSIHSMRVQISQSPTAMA
Assay: phosphorylation enrichment, bacterial display (enrichment ratio); higher = better substrate or ligand; peptides without Tyr show the background
Numbers only.

[
  {
    "primarySequence": "EDGRLYAVKRS [PKMYT1_Y136]",
    "phosphorylation enrichment": 0.417
  }
]

// input: 5 sequences below; output: phosphorylation enrichment for each
1. PLYRKYWPNHI [GREB1L_Y1560]
2. NTGDFYDLFGG [PTPN11_Y63_YF]
3. EQLQSYQVEII [KRT33A_Y268_A270V]
4. LKALHYMAQTS [SACS_Y3367_V3369A]
5. SKQGKYLNWDA [ATM_Y54]

stdout:
1. 0.813
2. 0.587
3. 0.67
4. 0.759
5. 0.384

// input: 7 sequences below; output: phosphorylation enrichment for each
1. EFISECCGEII [EZH2_Y641_Y641C]
2. NVDGKYSFLKV [GRM3_Y478_G475D_YF]
3. AVSEGYKDFRA [CDA_Y79]
4. HEKKAYSFCGT [RPS6KA3_Y226]
5. LNLKDYNLVGG [GNAQ_Y356_E355D]
6. ARVANYHRDGP [CAT_Y386_Q387H]
7. ADVLDYIKALN [HPRT1_Y81_L78V]

stdout:
1. 0.672
2. 0.394
3. 0.386
4. 0.703
5. 0.491
6. 0.309
7. 0.459

// input: 6 sequences below; output: phosphorylation enrichment for each
1. RPFRPYIIRGM [LRP5_Y1531_YF]
2. GREEFYSTHPH [LRRK2_Y1402]
3. HGDDDYDDPEL [CLNK_Y69_S65G]
4. GNLQENLTRHV [TGFBR2_Y336_Y336N]
5. PRARTYCYKQE [KLHDC9_Y175_S171R]
6. CTTIHYNFMCI [TP53_Y234_N239I_YF]

stdout:
0.633
0.385
0.756
0.478
0.467
0.621

// input: 3 sequences below; output: phosphorylation enrichment for each
1. DDKEFYSVHNK [MET_Y1235_Y1230D_YF]
2. FLAVGYHKPYI [IDS_Y225_H229Y]
3. QEIATYRRQLE [KRT14_Y415_L418Q]

stdout:
0.488
0.591
0.75

###

Molecular target: Hck (UniProt P08631)
Sequence (P08631 whole entry, looked up): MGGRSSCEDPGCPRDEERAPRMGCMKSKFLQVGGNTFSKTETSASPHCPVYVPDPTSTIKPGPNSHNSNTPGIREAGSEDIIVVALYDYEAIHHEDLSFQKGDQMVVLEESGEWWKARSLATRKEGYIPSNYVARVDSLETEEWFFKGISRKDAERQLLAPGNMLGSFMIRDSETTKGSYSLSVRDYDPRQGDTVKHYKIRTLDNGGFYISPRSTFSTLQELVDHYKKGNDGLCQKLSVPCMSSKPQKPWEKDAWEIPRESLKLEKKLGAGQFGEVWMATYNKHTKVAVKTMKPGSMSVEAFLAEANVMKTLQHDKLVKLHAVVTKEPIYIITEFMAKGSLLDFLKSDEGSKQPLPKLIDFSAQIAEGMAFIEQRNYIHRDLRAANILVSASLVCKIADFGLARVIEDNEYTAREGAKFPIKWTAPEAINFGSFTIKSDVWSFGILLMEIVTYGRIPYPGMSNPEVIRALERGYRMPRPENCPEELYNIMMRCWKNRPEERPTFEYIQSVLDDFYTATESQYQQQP
Assay: phosphorylation enrichment, bacterial display (enrichment ratio); higher = better substrate or ligand; peptides without Tyr show the background
Lab note: class by phosphorylation enrichment, see LOW = under 0.5, MID = from 0.5 up to 0.7, HIGH = 0.7 and over

Record excerpt, results attached:
[
  {
    "primarySequence": "RQSTLYSFFPK [MSH6_Y8]",
    "groupLabel": "HIGH"
  },
  {
    "primarySequence": "KNEVLYDGENH [ARFGEF1_Y314]",
    "groupLabel": "LOW"
  },
  {
    "primarySequence": "KTGDFYDLFGG [PTPN11_Y63_N58K_YF]",
    "groupLabel": "HIGH"
  },
  {
    "primarySequence": "VIKDKYPKAHY [APTX_Y209_R213H]",
    "groupLabel": "LOW"
  },
  {
    "primarySequence": "KLQKYYRKNPD [EHHADH_Y683_Q685K]",
    "groupLabel": "LOW"
  },
  {
    "primarySequence": "VMVCAYLLHRG [PTEN_Y138_I135V]",
    "groupLabel": "MID"
  }
]

stdin: // return the class label for VGEGPYLISDL [ABCC12_Y7]
stdout: LOW

stdin: // return the class label for CTTIHYNFRCN [TP53_Y234_M237R_YF]
stdout: LOW

stdin: // return the class label for LTEHGYSFTTT [ACTB_Y198_R196H]
stdout: LOW

stdin: // return the class label for AVISVYDLVVV [PSEN1_Y256_A260V]
stdout: HIGH

stdin: // return the class label for LRLFSYSTTIR [CYP7B1_Y365_S363F]
stdout: MID

stdin: // return the class label for PQEVTYAQLDH [KIR3DL2_Y398]
stdout: HIGH

stdin: // return the class label for NHYKICNLCAE [PTEN_Y68_Y68C]
stdout: LOW

###

Molecular target: Fyn (UniProt P06241)
Sequence (P06241 whole entry, looked up): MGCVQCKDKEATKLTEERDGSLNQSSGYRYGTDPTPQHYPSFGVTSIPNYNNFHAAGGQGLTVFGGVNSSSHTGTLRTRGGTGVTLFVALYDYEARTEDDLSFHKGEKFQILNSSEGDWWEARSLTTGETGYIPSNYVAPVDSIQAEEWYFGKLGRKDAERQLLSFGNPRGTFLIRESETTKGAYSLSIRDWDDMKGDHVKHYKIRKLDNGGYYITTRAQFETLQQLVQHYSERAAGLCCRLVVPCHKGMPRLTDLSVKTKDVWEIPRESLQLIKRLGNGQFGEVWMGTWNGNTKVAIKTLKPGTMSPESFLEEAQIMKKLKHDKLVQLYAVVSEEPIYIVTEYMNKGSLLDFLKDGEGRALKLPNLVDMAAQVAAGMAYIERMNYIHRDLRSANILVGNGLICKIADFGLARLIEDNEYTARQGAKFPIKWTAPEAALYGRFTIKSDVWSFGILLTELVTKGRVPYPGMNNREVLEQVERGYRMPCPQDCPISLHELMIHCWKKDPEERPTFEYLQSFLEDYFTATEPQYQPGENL
Assay: phosphorylation enrichment, bacterial display (enrichment ratio); higher = better substrate or ligand; peptides without Tyr show the background
Is phosphorylation enrichment at least 0.5? Then MET. If not, NOT MET.

[
  {
    "primarySequence": "RRKRAYVEIEF [MAK16_Y282_Q277R_YF]",
    "system": "Fyn (UniProt P06241)",
    "groupLabel": "MET"
  },
  {
    "primarySequence": "SVVVPYEPHEV [TP53_Y220_P223H]",
    "system": "Fyn (UniProt P06241)",
    "groupLabel": "MET"
  },
  {
    "primarySequence": "KTGDFYDLFGG [PTPN11_Y63_N58K_YF]",
    "system": "Fyn (UniProt P06241)",
    "groupLabel": "MET"
  },
  {
    "primarySequence": "RQQQDYWLMDV [ANPEP_Y600_I603M]",
    "system": "Fyn (UniProt P06241)",
    "groupLabel": "MET"
  },
  {
    "primarySequence": "SKDQICPMKLK [RANBP17_Y823_Y823C]",
    "system": "Fyn (UniProt P06241)",
    "groupLabel": "MET"
  }
]

stdin: Item DPTNTYARPAE [SGMS2_Y24] with phosphorylation enrichment of 0.5 or above?
stdout: NOT MET
